- Target System: UniProtKB P12822
- Sequence (P12822 whole entry): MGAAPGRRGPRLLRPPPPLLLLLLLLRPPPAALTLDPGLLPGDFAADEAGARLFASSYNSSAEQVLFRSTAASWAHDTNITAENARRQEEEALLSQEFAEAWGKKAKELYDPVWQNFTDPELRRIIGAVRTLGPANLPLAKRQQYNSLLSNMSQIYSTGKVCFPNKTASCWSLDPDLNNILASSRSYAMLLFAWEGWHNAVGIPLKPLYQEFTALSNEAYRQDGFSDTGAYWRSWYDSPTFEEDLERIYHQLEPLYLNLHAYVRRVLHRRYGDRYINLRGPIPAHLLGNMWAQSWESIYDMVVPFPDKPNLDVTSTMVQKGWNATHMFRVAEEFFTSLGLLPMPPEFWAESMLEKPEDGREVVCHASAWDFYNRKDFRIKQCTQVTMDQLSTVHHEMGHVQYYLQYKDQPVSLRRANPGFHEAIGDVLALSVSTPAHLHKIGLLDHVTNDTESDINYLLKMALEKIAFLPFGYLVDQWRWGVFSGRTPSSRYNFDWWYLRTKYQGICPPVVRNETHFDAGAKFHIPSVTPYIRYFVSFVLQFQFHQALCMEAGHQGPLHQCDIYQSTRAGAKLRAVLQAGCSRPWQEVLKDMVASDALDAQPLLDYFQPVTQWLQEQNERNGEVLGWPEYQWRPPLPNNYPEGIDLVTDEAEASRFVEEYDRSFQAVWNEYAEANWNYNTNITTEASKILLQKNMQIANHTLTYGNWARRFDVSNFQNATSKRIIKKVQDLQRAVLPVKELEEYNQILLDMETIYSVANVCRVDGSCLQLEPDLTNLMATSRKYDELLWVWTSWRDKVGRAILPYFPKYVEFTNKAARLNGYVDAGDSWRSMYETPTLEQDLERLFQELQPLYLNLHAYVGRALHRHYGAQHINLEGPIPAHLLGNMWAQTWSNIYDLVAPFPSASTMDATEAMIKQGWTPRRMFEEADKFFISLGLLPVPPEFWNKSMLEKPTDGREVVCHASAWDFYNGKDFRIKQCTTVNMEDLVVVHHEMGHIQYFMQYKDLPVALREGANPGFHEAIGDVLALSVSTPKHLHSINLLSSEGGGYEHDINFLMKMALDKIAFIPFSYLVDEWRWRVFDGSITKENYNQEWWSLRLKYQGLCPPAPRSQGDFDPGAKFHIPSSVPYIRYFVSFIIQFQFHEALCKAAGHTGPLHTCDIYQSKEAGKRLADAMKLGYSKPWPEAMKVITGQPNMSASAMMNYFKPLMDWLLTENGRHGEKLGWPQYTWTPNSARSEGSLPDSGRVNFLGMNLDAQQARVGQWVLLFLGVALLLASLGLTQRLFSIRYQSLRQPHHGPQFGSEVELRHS
- Assay Name: Inhibition of rabbit lung ACE activity relative to control
- Design: concentration or dose not given beside the values
- Settings: concentration not given here
I'd be grateful if you could share measured inhibition for these entries.
Answers are plain numbers, in %.

NCCC[C@H](NC(=O)Cc1c[nH]c2ccccc12)C(=O)N1CCC[C@H]1C(=O)O = 38.5
NCCC[C@H](NC(=O)CCCc1ccsc1)C(=O)N1CCC[C@H]1C(=O)O = 37.2
NCCC[C@H](NC(=O)CCc1c[nH]c2ccccc12)C(=O)N1CCC[C@H]1C(=O)O = 59.7
NCCC[C@H](NC(=O)c1ccsc1)C(=O)N1CCC[C@H]1C(=O)O = 23.7

Request: # query: inhibition of entry NCCC[C@H](NC(=O)c1c[nH]c2ccccc12)C(=O)N1CCC[C@H]1C(=O)O
Result: 27.7
